Test system: LOX IMVI melanoma
Experiment: NCI tumour cell line growth inhibition, 48 h
Peptide text beside a SMILES is read from it. * marks the point of attachment. X26 = Clc1c(Cl)c(Cl)c(O*)c(Cl)c1Cl; Boc = CC(C)(C)OC(=O)*; OBn = c1ccc(CO*)cc1; Bn = c1ccc(C*)cc1
Here, each record is paired with measured TGI data.

compound	system.name	TGI
CCN(c1ccc(CO)c(Cl)c1)C(C)c1ccc(F)cc1 (stereo unspecified)	LOX IMVI melanoma	32.9 µM
COc1ccc(C(C2=C(C)C(=O)c3ccccc3C2=O)c2ccc(C(C)C)cc(=O)c2O)cc1 (stereo unspecified)	LOX IMVI melanoma	17.6 µM
CC(=O)C1(O)CCC2(O)C3(O)CC=C4CC(O)CCC4(C)C3CC(OC(=O)c3ccc(O)cc3)C12C (stereo unspecified)	LOX IMVI melanoma	> 100 µM
Cn1nc2c(c1N)Cc1c(nn(C)c1N)-c1ccccc1-2	LOX IMVI melanoma	> 100 µM
COc1ccc(C2SC(N)=Nc3c2c(C)nn3C(=O)c2ccc(Cl)cc2)cc1OC (stereo unspecified)	LOX IMVI melanoma	> 10 µM
Cc1cc(OCc2nnc3sc(NC(=O)c4ccccc4)nn23)ccc1Cl	LOX IMVI melanoma	78.7 µM
CC(C)CC(NC(=O)C(CCC(=O)OCc1ccccc1)NC(=O)OC(C)(C)C)C(=O)NC(COCc1ccccc1)C(=O)NC(Cc1ccccc1)C(=O)Oc1c(Cl)c(Cl)c(Cl)c(Cl)c1Cl (stereo unspecified) (Boc-E(OBn)LS(Bn)F-X26; configuration not given here)	LOX IMVI melanoma	> 100 µM
CC(=O)OCC(=O)O[C@@H]1[C@H]2[C@@H](OC(=O)c3ccccc3)[C@@H](C)C[C@]2(O)[C@H](OC(C)=O)[C@@]2(C)C[C@]1(OC(C)=O)C[C@H]1C(=O)C(C)(C)[C@@H](OC(C)=O)[C@@H]12	LOX IMVI melanoma	> 25 µM

*Q* Could you share which TGI value was measured for "Cc1ccc(C(=O)Cc2nc3c([nH]c2=O)c(C)nn3-c2ccccc2)c(C)c1" ?
*A* > 10 µM

*Q* Could you share which TGI value was measured for "C[N+]1(CCN=C=NC2CCCCC2)CCOCC1" ?
*A* > 100 µM

*Q* Could you share which TGI value was measured for COc1cc(/C=C2\CN(C)CC3=C2Nc2nc(SC)[nH]c(=O)c2C3c2cc(OC)c(OC)c(OC)c2)cc(OC)c1OC (stereo unspecified) ?
*A* 3.94 µM

* * *

Tested on: OVCAR-3 ovarian
Experiment: NCI tumour cell line growth inhibition, 48 h
Here, each record is paired with measured TGI data.

Example cases with answers are listed next.
compound	value.observed
O=C(Nc1ccc(OC(F)(F)F)cc1)c1sccc1NCc1ccnc2ccccc12	> 100 µM
S=c1[nH]nc(Cn2c3ccc(Br)cc3c3nc4ccccc4nc32)n1C1CCCCC1	> 59.7 µM
Cc1cc2c(C(C)C)c(O)c(O)c(C=Nc3cc(C(F)(F)F)ccc3Cl)c2c(O)c1-c1c(C)cc2c(C(C)C)c(O)c(O)c(C=Nc3cc(C(F)(F)F)ccc3Cl)c2c1O	> 100 µM
Fc1cccc(COc2ccc(Nc3ncnc4sc(-c5ccco5)cc34)cc2Cl)c1	> 25 µM
CC1(C)O[C@H]2OC3CCC(=O)CC3(O)[C@H]2O1 (some centres not stated)	> 100 µM

Please look at the following compound next.
*Q* For OVCAR-3 ovarian, provide TGI of "C[N+]1(CCN=C=NC2CCCCC2)CCOCC1" please.
*A* > 100 µM

Origin of measurements: PubChem BioAssay (NCI)
